system: HOP-92 NSCLC; assay: NCI tumour cell line growth inhibition, 48 h
Listing: TGI of selected molecules
Give the value in µM but do not write µM after it.

Use the examples below as a reference point.
COc1ccc2[nH]cc(-c3nc(-c4cn(C)c5ccncc45)cs3)c2c1 = 3.63
NNC(=O)c1c(Cl)c(Cl)c(Cl)c(Cl)c1-c1nc2ccccc2[nH]1 = 43.9
COc1cccc(/C=N\Nc2ccc([N+](=O)[O-])cn2)c1O = 9.44

The observed TGI for CCCCCCCCCCCC(=O)OCC1OC(n2cc(F)c(=O)[nH]c2=O)C(N)C(OC(=O)CCCCCCCCCCC)C1O (stereo unspecified) when tested with HOP-92 NSCLC stands at 98.8

The observed TGI for Cc1nc2c(o1)C(=O)c1ccccc1/C2=N/c1ccccn1 when tested with HOP-92 NSCLC stands at 36.9

---

test system: SW-620 colon; assay: NCI tumour cell line growth inhibition, 48 h
Listing: log10(TGI) of selected compounds
Field: value | Transform: log10 | Quantity: TGI | Unit: µM

CN(C)CCNc1ccc([N+](=O)[O-])c2nc3ccccc3c(N)c12 = 0.57

Value of measured log10(TGI) for the entry Cc1nc2c(o1)C(=O)c1ccccc1/C2=N/c1ccccn1 : 1.50

Value of measured log10(TGI) for the entry Cc1c(C(=O)/C=C/c2ccc(Cl)cc2)[n+](=O)c2ccccc2n1[O-] : 1.34

Value of measured log10(TGI) for the entry CCN(CC)CCOc1ccc(/C=C2\CC3C4CCC5=CC(=O)CC[C@]5(C)C4CC[C@]3(C)C2=O)cc1OC (stereo not given in full) : 1.13

Value of measured log10(TGI) for the entry COc1ccc(-c2n[nH]nc2-c2csc3ccccc23)cc1OC : 1.64

---

tested on: PC-3 prostate; test: NCI tumour cell line growth inhibition, 48 h
Listing: TGI of selected compounds

Use the examples below as a reference point.
CC(=O)C1=C(N=[N+]=[N-])c2cccc3cccc(c23)C1=O = 53.2 µM
COc1ccc2c(c1)C/C(=C\c1ccc(O)c(OC)c1)C2=O = > 100 µM

The observed TGI for CCc1n[nH]c(=O)n1N1C(=O)C2CC=CCC2C1=O (stereo unspecified) when tested with PC-3 prostate stands at > 100 µM

The observed TGI for COc1cccc(/C=N\Nc2ccc([N+](=O)[O-])cn2)c1O when tested with PC-3 prostate stands at > 100 µM

The observed TGI for CCOP(=O)(Nc1ccc(-c2ccccc2)cc1)OCC when tested with PC-3 prostate stands at > 100 µM

---

system: ACHN renal; assay: NCI tumour cell line growth inhibition, 48 h
assay.metric: TGI (µM)
Give the value in µM but do not write µM after it.

Use the examples below as a reference point.
COc1ccc(Cc2nc3cc(C(F)(F)F)ccc3n2CCCN(C)C)cc1 = 79.9
ClCCN(CCCl)c1ccc(-n2cnc3c(Cl)ncnc32)cc1 = 3.54
COc1cccc(/C=N\Nc2ccc([N+](=O)[O-])cn2)c1O = 7.61

Value of measured TGI for the entry CC(C)CCC1(O)O[C@H]2C[C@H]3[C@@H]4CCC5CC(=O)C=C[C@]5(C)[C@H]4CC[C@]3(C)[C@H]2[C@@H]1C (stereo partly drawn) : 26.6

---

test system: SW-620 colon; test: NCI tumour cell line growth inhibition, 48 h; in the data active = GI50 below about 0.43 µM; inactive = the rest
Write down one outcome, taken from active, inactive

ClCCN(CCCl)c1ccc(-n2cnc3c(Cl)ncnc32)cc1 = inactive

Dear all, I need the recorded test outcome for O=C1/C(=C/c2ccccc2Cl)N=C(c2ccccc2)N1Cc1ccco1 , thank you. inactive

Dear all, I need the recorded test outcome for COc1ccc2c(c1)c(C1(c3cn(C)c4ccc(OC)cc34)C(=O)Nc3ccc(F)cc31)cn2C , thank you. inactive

Dear all, I need the recorded test outcome for O=C(COc1cccc(/C=C2\COc3ccccc3C2=O)c1)Nc1nccs1 , thank you. inactive

Dear all, I need the recorded test outcome for O=C1c2ccccc2C(=O)N1c1ccc(S(=O)(=O)Nc2ncccn2)cc1 , thank you. inactive

Dear all, I need the recorded test outcome for CC1(C)N=C(N)N=C(N)N1c1ccc(F)c(C(F)(F)F)c1 , thank you. active

Dear all, I need the recorded test outcome for C#C[C@]1(O)CC[C@H]2[C@@H]3CC=C4c5sc(N=C(N)N)nc5CC[C@]4(C)[C@H]3CC[C@@]21C , thank you. inactive
